Values were extracted from patent US8445510B2.

Collected pIC50 values appear next to each entry.
Biological target: Aurora B (Homo sapiens)
Construct: HT-29 cells grown in complete growth media
Experiment: Aurora B cell mechanistic assay (HT-29), phospho-Histone H3 (Ser10) ELISA
Details: HT-29 cell line; inhibition of phospho-Histone H3 (Ser10); at least duplicate experiments (italicized if single experiment); read-out: Aurora B mech IC50
pIC50: −log10 of the molar value.

Some solved cases for reference:
1. COc1ccc(F)c(Cl)c1[C@@H](C)c1c[nH]c2ncc(-c3cncn3C)cc12 :: < 6.00
2. Cc1c(-c2cnc3[nH]cc([C@H](C)c4c(OC[C@@H](O)CO)ccc(F)c4Cl)c3c2)cnn1C :: < 6.00

Exercise: Enter measured pIC50, system Aurora B (Homo sapiens), for the molecule shown: `COc1ccc(F)c(Cl)c1[C@@H](C)c1c[nH]c2ncc(-c3cn(C)nc3C(N)=O)cc12`
Solution: < 6.00

Exercise: Enter measured pIC50, system Aurora B (Homo sapiens), for the molecule shown: `COc1ccc(F)c(Cl)c1[C@@H](C)c1c[nH]c2ncc(-c3cnn(C)c3C(N)=O)cc12`
Solution: < 6.00

Exercise: Enter measured pIC50, system Aurora B (Homo sapiens), for the molecule shown: `COc1ccc(F)c(Cl)c1[C@@H](C)c1c[nH]c2ncc(-c3cnn([C@H]4CC[C@@H](O)CC4)c3C)cc12`
Solution: < 6.00

Exercise: Enter measured pIC50, system Aurora B (Homo sapiens), for the molecule shown: `COc1ccc(F)c(Cl)c1[C@@H](C)c1c[nH]c2ncc(-c3cn([C@H]4CC[C@H](C(=O)N(C)C)CC4)nc3C)cc12`
Solution: 6.70 to 7.30

Exercise: Enter measured pIC50, system Aurora B (Homo sapiens), for the molecule shown: `C[C@H](c1c(OC(F)F)ccc(F)c1Cl)c1c[nH]c2ncc(-c3cnn([C@H]4CC[C@H](O)CC4)c3Cl)cc12`
Solution: < 6.00

Exercise: Enter measured pIC50, system Aurora B (Homo sapiens), for the molecule shown: `COc1ccc(F)c(Cl)c1[C@@H](C)c1c[nH]c2ncc(-c3cn([C@@H]4C[C@@H](O)[C@@H](O)C4)nc3C)cc12`
Solution: 6.70 to 7.30

Exercise: Enter measured pIC50, system Aurora B (Homo sapiens), for the molecule shown: `Cc1c(-c2cnc3[nH]cc([C@H](C)c4c(OC(F)F)ccc(F)c4Cl)c3c2)cnn1[C@H]1C[C@@](C)(O)C1`
Solution: < 6.00

Exercise: Enter measured pIC50, system Aurora B (Homo sapiens), for the molecule shown: `COc1ccc(F)c(Cl)c1[C@@H](C)c1c[nH]c2ncc(-c3c(C)nn(C)c3Cl)cc12`
Solution: < 6.00

Exercise: Enter measured pIC50, system Aurora B (Homo sapiens), for the molecule shown: `Cc1nn(C[C@@H](O)CO)c(C)c1-c1cnc2[nH]cc([C@H](C)c3c(OC(F)F)ccc(F)c3Cl)c2c1`
Solution: < 6.00

Exercise: Enter measured pIC50, system Aurora B (Homo sapiens), for the molecule shown: `COc1ccc(F)c(Cl)c1[C@@H](C)c1c[nH]c2ncc(-c3cnn([C@H]4CC[C@H](N(C)C)CC4)c3C)cc12`
Solution: 6.70 to 7.30

Exercise: Enter measured pIC50, system Aurora B (Homo sapiens), for the molecule shown: `COc1ccc(F)c(Cl)c1[C@@H](C)c1c[nH]c2ncc(-c3c(C)nn([C@@H]4C[C@@H](O)[C@@H](O)C4)c3C)cc12`
Solution: < 6.00

Exercise: Enter measured pIC50, system Aurora B (Homo sapiens), for the molecule shown: `COc1ccc(F)c(Cl)c1[C@@H](C)c1c[nH]c2ncc(-c3cnn(C)c3N)cc12`
Solution: 6.00 to 6.70

Exercise: Enter measured pIC50, system Aurora B (Homo sapiens), for the molecule shown: `COc1ccc(F)c(Cl)c1[C@@H](C)c1c[nH]c2ncc(-c3cn(C)nc3Cl)cc12`
Solution: 6.00 to 6.70

Exercise: Enter measured pIC50, system Aurora B (Homo sapiens), for the molecule shown: `CCc1c(-c2cnc3[nH]cc([C@H](C)c4c(OC(F)F)ccc(F)c4Cl)c3c2)cnn1[C@H]1CC[C@H](O)CC1`
Solution: < 6.00

###

Collected pIC50 values appear next to each entry.
Molecular target: UniProt Q04912
Assay: sfRON cell mechanistic assay (HeLa), phosphorylated RON ELISA
Settings: HeLa cells transfected with sfRON; inhibition of phosphorylated RON; four hours incubation; at least duplicate experiments; read-out: sfRON mech IC50
pIC50: −log10 of the molar value.

Some solved cases for reference:
1) COc1ccc(F)c(Cl)c1[C@@H](C)c1c[nH]c2ncc(-c3cnn(C)c3OC)cc12 :: < 6.00
2) Cc1c(-c2cnc3[nH]cc([C@H](C)c4c(OC(F)F)ccc(F)c4Cl)c3c2)cnn1[C@H]1CC[C@@H](O)CC1 :: 6.00 to 6.70

Please find the next molecule below.
Exercise: Enter measured pIC50, system UniProt Q04912, for the molecule shown: `COc1ccc(F)c(Cl)c1[C@@H](C)c1c[nH]c2ncc(-c3cnn([C@H]4CC[C@H](N)CC4)c3C)cc12`
Solution: 6.00 to 6.70

###

Biological target: RON (Homo sapiens)
Sequence (Q04912 913-1400): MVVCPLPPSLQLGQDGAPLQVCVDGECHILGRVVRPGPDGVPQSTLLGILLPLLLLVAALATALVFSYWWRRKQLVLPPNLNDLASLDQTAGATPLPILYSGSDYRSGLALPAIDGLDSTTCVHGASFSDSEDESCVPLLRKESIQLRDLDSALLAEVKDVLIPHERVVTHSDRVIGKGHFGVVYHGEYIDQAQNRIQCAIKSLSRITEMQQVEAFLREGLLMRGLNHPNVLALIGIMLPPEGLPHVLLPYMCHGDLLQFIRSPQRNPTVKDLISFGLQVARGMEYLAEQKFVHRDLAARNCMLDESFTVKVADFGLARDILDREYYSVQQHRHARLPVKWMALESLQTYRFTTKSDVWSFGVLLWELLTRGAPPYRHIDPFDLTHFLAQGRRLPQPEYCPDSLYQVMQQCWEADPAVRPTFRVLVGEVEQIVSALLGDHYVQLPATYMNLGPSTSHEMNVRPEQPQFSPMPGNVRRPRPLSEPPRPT
Experiment: sfRON cell mechanistic assay (HeLa), phosphorylated RON ELISA
Settings: HeLa cells transfected with sfRON; inhibition of phosphorylated RON; four hours incubation; at least duplicate experiments; read-out: sfRON mech IC50
Assay readout: IC50

Some solved cases for reference:
1. Cc1c(-c2cnc3[nH]cc([C@H](C)c4c(OC(F)F)ccc(F)c4Cl)c3c2)cnn1[C@H]1CC[C@H](C(N)=O)CC1 [Example 76] :: ≤ 0.2 µM
2. COc1ccc(F)c(Cl)c1[C@@H](C)c1c[nH]c2ncc(-c3cnn([C@@H]4C[C@@H](O)[C@@H](O)C4)c3C)cc12 [Example 31] :: 0.2 to 1 µM
3. COc1ccc(F)c(Cl)c1[C@@H](C)c1c[nH]c2ncc(-c3cn(C)nc3CO)cc12 [Example 42] :: > 1 µM
4. COc1cc(OC)c(Cl)c([C@@H](C)c2c[nH]c3ncc(-c4cnn([C@H]5CC[C@H](O)CC5)c4C)cc23)c1Cl [Example 106] :: 0.2 to 1 µM

Exercise: Fill in IC50 for record Cc1c(-c2cnc3[nH]cc([C@H](C)c4c(OC(C)C)ccc(F)c4Cl)c3c2)cnn1[C@H]1CC[C@H](O)CC1 [Example 104]
Solution: 0.2 to 1 µM

Exercise: Fill in IC50 for record Cc1c(-c2cnc3[nH]cc([C@H](C)c4c(OC(F)F)ccc(F)c4Cl)c3c2)cnn1C[C@H](O)CO [Example 70]
Solution: ≤ 0.2 µM

Exercise: Fill in IC50 for record CCc1c(-c2cnc3[nH]cc([C@H](C)c4c(OC(F)F)ccc(F)c4Cl)c3c2)cnn1[C@H]1CC[C@H](O)CC1 [Example 78]
Solution: 0.2 to 1 µM

###

Collected IC50 values appear next to each entry.
Biological target: Aurora B (Homo sapiens, UniProt Q96GD4)
Construct: HT-29 cells grown in complete growth media
Sequence (Q96GD4 whole entry): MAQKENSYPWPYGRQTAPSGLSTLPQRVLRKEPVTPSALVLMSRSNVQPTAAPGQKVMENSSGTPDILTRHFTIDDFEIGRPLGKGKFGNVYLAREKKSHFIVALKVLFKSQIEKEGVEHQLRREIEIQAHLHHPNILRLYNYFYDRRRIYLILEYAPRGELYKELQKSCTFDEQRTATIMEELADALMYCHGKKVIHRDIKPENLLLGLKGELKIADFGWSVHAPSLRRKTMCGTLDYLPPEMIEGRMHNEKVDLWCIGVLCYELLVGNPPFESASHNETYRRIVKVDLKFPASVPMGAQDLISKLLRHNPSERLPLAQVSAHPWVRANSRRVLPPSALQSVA
Assay: Aurora B cell mechanistic assay (HT-29), phospho-Histone H3 (Ser10) ELISA
Details: HT-29 cell line; inhibition of phospho-Histone H3 (Ser10); at least duplicate experiments (italicized if single experiment); read-out: Aurora B mech IC50
Method: The cellular activity of the compounds of the present invention against Aurora B may be determined by the following procedure. […] Signal was measured on a Wallac Victor plate reader at 450 nm. […] The percent inhibition of phospho-Histone H3 (Ser10) was expressed as % control. IC50 values were calculated from the percent control data using a standard four-parameter model. […]

Some solved cases for reference:
1. C[C@H](c1c(OC(F)F)ccc(F)c1Cl)c1c[nH]c2ncc(-c3cnn([C@H]4CC[C@H](O)CC4)c3CO)cc12 [Example 83] :: > 1000 nM
2. Cc1c(-c2cnc3[nH]cc([C@H](C)c4c(O)ccc(F)c4Cl)c3c2)cnn1[C@H]1CC[C@H](O)CC1 [Example 102] :: > 1000 nM
3. Cc1c(-c2cnc3[nH]cc([C@H](C)c4c(OC(F)F)ccc(F)c4Cl)c3c2)cnn1[C@H]1C[C@@H](O)C1 [Example 81] :: > 1000 nM

Exercise: Fill in IC50 for record COc1ccc(F)c(Cl)c1[C@@H](C)c1c[nH]c2ncc(-c3cn(C)nc3CN)cc12 [Example 50]
Solution: 200 to 1000 nM
